Each entry below lists one item and its recorded Fold improvement in EC50 over BCY10000 on same plate, NCI-H292 value.
- tgt: CD137 on Jurkat reporter cells (Promega kit CS196005) (UniProt Q07011 24-255, limits assumed)
- Sequence (Q07011 24-255 limits assumed): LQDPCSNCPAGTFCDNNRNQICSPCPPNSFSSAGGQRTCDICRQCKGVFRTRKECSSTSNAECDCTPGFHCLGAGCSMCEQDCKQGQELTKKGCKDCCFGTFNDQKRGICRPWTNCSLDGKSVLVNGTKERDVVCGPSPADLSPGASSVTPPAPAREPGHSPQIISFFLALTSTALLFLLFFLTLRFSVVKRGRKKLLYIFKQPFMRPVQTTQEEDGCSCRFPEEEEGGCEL
- method-summary: cell-based or functional assay
Starred links: 1 amine or outer side, 2 acyl side, 3 side chain; linkers in the order of their positions; H or OH if unused. Positions of bridges follow the written chain, without caps; N, C: chain ends. Non-standard residues stand in square brackets, D forms with d. Chains are numbered I, II in the order given. No end group written: not given here. *: point of attachment. TATA = O=C(CC[*:1])N1CN(C(=O)CC[*:2])CN(C(=O)CC[*:3])C1; 1Nal = N[C@@H](Cc1cccc2ccccc12)C(=O)O; Hyp = O=C(O)[C@@H]1C[C@@H](O)CN1; hArg = N=C(N)NCCCC[C@H](N)C(=O)O; tBuAla = CC(C)(C)C[C@H](N)C(=O)O; Nle = CCCC[C@H](N)C(=O)O; Pent4ynoyl = C#CCCC(=O)*
I only need the number, in fold, no unit after it.

BCY12590 (linker I:1-I:5-I:15, II:1-II:8-II:15 via TATA; not fully specified (some residues, bridges); also: chains joined via N-(acid-PEG3)-N-bis(PEG3-azide) linker, triazole at dLys(PYA)) peptide 1: CP[1Nal]ECM[hArg]EWSTP[Hyp]WC peptide 2: Ac-C[tBuAla]PE[dK](Pent4ynoyl)PYCFADPY[Nle]CA    5.5
BCY12586 (not fully specified; BCY12352: Ac-(SEQ ID NO: 69), [Cysam] third reactive group; TATA; linker at dLys(PYA)4; BCY8116: SEQ ID NO: 1; TATA; linker at N-terminus) peptide 1: CPXDCMXDWSTPXWC peptide 2: CXPEXPYCFADPYXX    1.9

Attention now turns to another entry.
Entry under test: BCY12485 (not fully specified; BCY12149: Ac-(SEQ ID NO: 63); TATA; linker at dLys(PYA)4; BCY8116: SEQ ID NO: 1; TATA; linker at N-terminus) peptide 1: CPXDCMXDWSTPXWC peptide 2: CXPEXPYCFADPYXC . Its Fold improvement in EC50 over BCY10000 on same plate, NCI-H292 was 3.82
